- method description: Solubility studies of Bu and BuP in buffer media
- Type: physicochemical
- protocol conditions: phosphate buffer with 10% w/v rat fecal content, plasma or biological fluid, thermodynamic from solid; Phosphate buffer, pH 6.8 + rat fecal content; 30 min
observed property: solubility at 30 min (µg/mL)

INSERT INTO assay_data (compound, observed_property, quantitative_result) VALUES
  ('CCCC1O[C@@H]2C[C@H]3[C@@H]4CCC5=CC(=O)C=C[C@]5(C)[C@H]4[C@@H](O)C[C@]3(C)[C@]2(C(=O)CO)O1 (stereo partly shown) [Bu, budesonide]', 'solubility at 30 min', 357);

----------
- method description: Solubility studies of Bu and BuP in buffer media
- Type: physicochemical
- protocol conditions: thermodynamic from solid; Double distilled water, pH 5.8; 30 min
- Method: Solubility studies of the pure Bu and prepared BuP were determined (n=6) by making saturated solutions of HCl buffer, phthalate buffer, phosphate buffer of pH 1.2, 4.0, 6.8 (with and without 10% w/v rat fecal content), and 7.4 respectively. […] Fiber optic probes were inserted at 0 and 30 minutes, and readings taken at 232 nm for Bu and 340 nm for BuP using the fiber optics system
observed property: solubility at 30 min (µg/mL)

INSERT INTO results (molecule, observed_property, units_text, quantitative_result) VALUES
  ('CCCC1O[C@@H]2C[C@H]3[C@@H]4CCC5=CC(=O)C=C[C@]5(C)[C@H]4[C@@H](O)C[C@]3(C)[C@]2(C(=O)CO)O1 (stereo partly shown) [Bu, budesonide]', 'solubility at 30 min', 'µg/mL', 209);

----------
- method description: Solubility studies of Bu and BuP in buffer media
- Assay type: physicochemical
- protocol conditions: aqueous buffer, thermodynamic from solid; Phosphate buffer, pH 7.4; 0 min
observed property: solubility at 0 min (µg/mL)

INSERT INTO results (molecule, units_text, quantitative_result) VALUES
  ('CCCC1O[C@@H]2C[C@H]3[C@@H]4CCC5=CC(=O)C=C[C@]5(C)[C@H]4[C@@H](O)C[C@]3(C)[C@]2(C(=O)CO)O1 (stereo partly shown) [Bu, budesonide]', 'µg/mL', 231);

----------
- method description: Partition coefficient, Hansch method (n-octanol/buffer)
- Format: physicochemical
- protocol conditions: n-octanol / phosphate buffer, pH 7.4
observed property: logP

INSERT INTO results (compound, observed_property, quantitative_result) VALUES
  ('CCCC1O[C@@H]2C[C@H]3[C@@H]4CCC5=CC(=O)C=C[C@]5(C)[C@H]4[C@@H](O)C[C@]3(C)[C@]2(C(=O)CO)O1 (stereo partly shown) [Bu, budesonide]', 'logP', 2.13);

----------
- method description: Partition coefficient, Hansch method (n-octanol/buffer)
- Format: physicochemical
- protocol conditions: n-octanol / phosphate buffer, pH 6.8
observed property: logP

INSERT INTO results (compound, observed_property, quantitative_result) VALUES
  ('CCCC1O[C@@H]2C[C@H]3[C@@H]4CCC5=CC(=O)C=C[C@]5(C)[C@H]4[C@@H](O)C[C@]3(C)[C@]2(C(=O)CO)O1 (stereo partly shown) [Bu, budesonide]', 'logP', 2.51);

----------
- method description: Partition coefficient, Hansch method (n-octanol/buffer)
- Type: physicochemical
- protocol conditions: n-octanol / phthalate buffer, pH 4.0
observed property: logP

INSERT INTO results (compound, observed_property, quantitative_result) VALUES
  ('CCCC1O[C@@H]2C[C@H]3[C@@H]4CCC5=CC(=O)C=C[C@]5(C)[C@H]4[C@@H](O)C[C@]3(C)[C@]2(C(=O)CO)O1 (stereo partly shown) [Bu, budesonide]', 'logP', 3.01);

----------
- method description: Solubility studies of Bu and BuP in buffer media
- Assay type: physicochemical
- protocol conditions: simulated gastric fluid, thermodynamic from solid; HCl buffer, pH 1.2; 0 min
observed property: solubility at 0 min (mg/mL)

INSERT INTO results (compound, quantitative_result) VALUES
  ('CCCC1O[C@@H]2C[C@H]3[C@@H]4CCC5=CC(=O)C=C[C@]5(C)[C@H]4[C@@H](O)C[C@]3(C)[C@]2(C(=O)CO)O1 (stereo partly shown) [Bu, budesonide]', 0.0251);

----------
- method description: Solubility studies of Bu and BuP in buffer media
- Format: physicochemical
- protocol conditions: aqueous buffer, thermodynamic from solid; Phosphate buffer, pH 7.4; 30 min
observed property: solubility at 30 min

INSERT INTO measurements (molecule, result) VALUES
  ('CCCC1O[C@@H]2C[C@H]3[C@@H]4CCC5=CC(=O)C=C[C@]5(C)[C@H]4[C@@H](O)C[C@]3(C)[C@]2(C(=O)CO)O1 (stereo partly shown) [Bu, budesonide]', '476 µg/mL');

----------
- method description: Solubility studies of Bu and BuP in buffer media
- Type: physicochemical
- protocol conditions: aqueous buffer, thermodynamic from solid; Phosphate buffer, pH 6.8; 30 min
observed property: solubility at 30 min (µg/mL)

INSERT INTO results (compound, quantitative_result) VALUES
  ('CCCC1O[C@@H]2C[C@H]3[C@@H]4CCC5=CC(=O)C=C[C@]5(C)[C@H]4[C@@H](O)C[C@]3(C)[C@]2(C(=O)CO)O1 (stereo partly shown) [Bu, budesonide]', 357);

----------
- method description: Solubility studies of Bu and BuP in buffer media
- Format: physicochemical
- protocol conditions: aqueous buffer, thermodynamic from solid; Phosphate buffer, pH 6.8; 0 min
observed property: solubility at 0 min

INSERT INTO measurements (compound, result) VALUES
  ('CCCC1O[C@@H]2C[C@H]3[C@@H]4CCC5=CC(=O)C=C[C@]5(C)[C@H]4[C@@H](O)C[C@]3(C)[C@]2(C(=O)CO)O1 (stereo partly shown) [Bu, budesonide]', '187 µg/mL');

----------
- method description: Solubility studies of Bu and BuP in buffer media
- Format: physicochemical
- protocol conditions: aqueous buffer, thermodynamic from solid; Phthalate buffer, pH 4.0; 0 min
observed property: solubility at 0 min (µg/mL)

INSERT INTO measurements (compound, quantitative_result) VALUES
  ('CCCC1O[C@@H]2C[C@H]3[C@@H]4CCC5=CC(=O)C=C[C@]5(C)[C@H]4[C@@H](O)C[C@]3(C)[C@]2(C(=O)CO)O1 (stereo partly shown) [Bu, budesonide]', 68.2);

----------
- method description: Solubility studies of Bu and BuP in buffer media
- Format: physicochemical
- protocol conditions: phosphate buffer with 10% w/v rat fecal content, plasma or biological fluid, thermodynamic from solid; Phosphate buffer, pH 6.8 + rat fecal content; 0 min
observed property: solubility at 0 min (µg/mL)

INSERT INTO measurements (compound, quantitative_result) VALUES
  ('CCCC1O[C@@H]2C[C@H]3[C@@H]4CCC5=CC(=O)C=C[C@]5(C)[C@H]4[C@@H](O)C[C@]3(C)[C@]2(C(=O)CO)O1 (stereo partly shown) [Bu, budesonide]', 187);

----------
- method description: Solubility studies of Bu and BuP in buffer media
- Type: physicochemical
- protocol conditions: thermodynamic from solid; Double distilled water, pH 5.8; 0 min
observed property: solubility at 0 min (µg/mL)

INSERT INTO measurements (compound, quantitative_result) VALUES
  ('CCCC1O[C@@H]2C[C@H]3[C@@H]4CCC5=CC(=O)C=C[C@]5(C)[C@H]4[C@@H](O)C[C@]3(C)[C@]2(C(=O)CO)O1 (stereo partly shown) [Bu, budesonide]', 121);

----------
- method description: Solubility studies of Bu and BuP in buffer media
- Format: physicochemical
- protocol conditions: simulated gastric fluid, thermodynamic from solid; HCl buffer, pH 1.2; 30 min ultrasonic bath
observed property: solubility at 30 min

INSERT INTO assay_data (compound, result) VALUES
  ('CCCC1O[C@@H]2C[C@H]3[C@@H]4CCC5=CC(=O)C=C[C@]5(C)[C@H]4[C@@H](O)C[C@]3(C)[C@]2(C(=O)CO)O1 (stereo partly shown) [Bu, budesonide]', '88.1 µg/mL');
